pIC50: recorded values
Target: S1P1 (Homo sapiens)
Sequence (P21453 whole entry): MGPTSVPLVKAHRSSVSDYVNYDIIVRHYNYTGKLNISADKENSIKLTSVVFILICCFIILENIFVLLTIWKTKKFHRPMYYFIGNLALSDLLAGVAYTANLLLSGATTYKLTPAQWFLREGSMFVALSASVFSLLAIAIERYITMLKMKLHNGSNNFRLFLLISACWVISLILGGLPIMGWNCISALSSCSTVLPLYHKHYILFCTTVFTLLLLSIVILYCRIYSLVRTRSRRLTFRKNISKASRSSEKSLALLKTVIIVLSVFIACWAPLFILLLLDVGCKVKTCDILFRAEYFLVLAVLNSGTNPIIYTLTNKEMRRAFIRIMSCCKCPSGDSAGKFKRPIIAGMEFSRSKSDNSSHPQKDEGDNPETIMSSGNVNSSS
Experiment: competitive [^32P]S1P binding assay, S1P1
Settings: S1P1 IC50, competition with [^32P]S1P, cell membranes expressing recombinant human S1P1
pIC50: −log10 of the molar value.
quantity: pIC50

compound="O=C(O)C1CCN(c2ccc3oc(-c4ccc(-c5ccc(C(F)(F)F)cc5)c(C(F)(F)F)c4)nc3c2)CC1 [Compound 18d]" quantity=pIC50 inequality_symbol== endpoint_result=6.30
compound="O=C(O)C1CN(Cc2ccc3oc(-c4ccc(OCCF)c(C(F)(F)F)c4)nc3c2)C1 [Compound 15b]" quantity=pIC50 inequality_symbol== endpoint_result=7.12
compound="O=C(O)c1ccc(-c2ccc3oc(-c4ccc(-c5ccc(F)nc5)c(C(F)(F)F)c4)nc3c2)s1 [Compound 16]" quantity=pIC50 inequality_symbol== endpoint_result=6.48
compound="COc1ccc(-c2nc(-c3ccc(CN4CC(C(=O)O)C4)cc3)no2)cc1C(F)(F)F [Compound 28f]" quantity=pIC50 inequality_symbol=< endpoint_result=7.00
